// data source = patent US10253078

Molecular target: T1, human GIP receptor (human, UniProt P48546 22-466)
T1 sequence (looked up): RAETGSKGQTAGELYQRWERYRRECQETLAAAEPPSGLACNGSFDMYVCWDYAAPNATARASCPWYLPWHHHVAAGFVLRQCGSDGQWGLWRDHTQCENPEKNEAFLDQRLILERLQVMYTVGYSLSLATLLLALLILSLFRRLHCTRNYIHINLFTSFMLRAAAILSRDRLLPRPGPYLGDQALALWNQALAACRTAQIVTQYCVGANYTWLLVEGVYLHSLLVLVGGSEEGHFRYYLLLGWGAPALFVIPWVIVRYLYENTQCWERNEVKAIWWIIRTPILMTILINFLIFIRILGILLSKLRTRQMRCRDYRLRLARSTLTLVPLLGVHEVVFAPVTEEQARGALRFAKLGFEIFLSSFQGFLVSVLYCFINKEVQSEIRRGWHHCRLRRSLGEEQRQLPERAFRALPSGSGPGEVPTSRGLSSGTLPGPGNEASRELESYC
Test: cell-based or functional assay
Starred links: 1 amine or outer side, 2 acyl side, 3 side chain; linkers in the order of their positions; H or OH if unused. Non-standard residues stand in square brackets, D forms with d. Groups on a side chain read outwards from the residue. *: point of attachment. C20 diacid = O=C(O)CCCCCCCCCCCCCCCCCCC(=O)*; γGlu = O=C(O)[C@H](CCC(=O)[*:2])N[*:1]; Aib = CC(C)(N)C(=O)O
value_kind: EC50 hGIP R (cAMP, HEK293 cells expressing the GIP R) (nM)
Numbers only, in nM.

Look over these answered cases.
For this binder ( H-Y[Aib]EGTFISDYSIELDKK([Peg3-Peg3-γGlu-C20 diacid])AAQDFIEWLLAQGPSSGAPPPS-NH2 [Compound 38] ), measured EC50 hGIP R (cAMP, HEK293 cells expressing the GIP R) is 0.017

For this binder ( YAEGTFISDYSIELDKKAAQDFIEWLLAGPSSGAPPPS (Aib at 2; Lys 17 side chain acylated: K((19-Carboxy-nonadecanoyl)-[(Piperazine-1-yl)-acetyl]-Peg3-Peg3); C-terminal amide (-NH2)) [Compound 33] ), measured EC50 hGIP R (cAMP, HEK293 cells expressing the GIP R) is 0.02

For this binder ( H-Y[Aib]EGTFISDYSIELDKK([Peg3-Peg3-γGlu-C20 diacid])HQQDFVNYLLAQGPSSGAPPPS-NH2 [Compound 8] ), measured EC50 hGIP R (cAMP, HEK293 cells expressing the GIP R) is 0.019

For this binder ( H-Y[Aib]EGTFISDYSIELDKK([Peg3-Peg3-γGlu-C20 diacid])AAQDFVNWLLAAGPSSGAPPPS-NH2 [Compound 30] ), measured EC50 hGIP R (cAMP, HEK293 cells expressing the GIP R) is 0.014

For this binder ( H-Y[dA]EGTFISDYSIELDKK([Peg3-Peg3-γGlu-C20 diacid])AQRAFIEWLLAQGPSSGAPPPS-NH2 [Compound 36] ), measured EC50 hGIP R (cAMP, HEK293 cells expressing the GIP R) is 0.006

Provide reported EC50 hGIP R (cAMP, HEK293 cells expressing the GIP R) for each item, in the same order as listed.
1. H-Y[Aib]EGTFISDYSIELDKK([Peg3-Peg3-γGlu-C20 diacid])AAQDFIEWLLAGPSSGAPPPS-NH2 [Compound 32]
2. H-Y[Aib]EGTFISDYSIELDKK([Peg3-Peg3-γGlu-C20 diacid])AAQDFVNWLLAQGPSSGAPPPS-NH2 [Compound 10]
3. H-Y[Aib]EGTFISDYSIELDKK([Peg3-Peg3-γGlu-C20 diacid])AAQDFVNWLLAGPSSGAPPPS-NH2 [Compound 15]

1. 0.012
2. 0.008
3. 0.024

Provide reported EC50 hGIP R (cAMP, HEK293 cells expressing the GIP R) for each item, in the same order as listed.
1. H-Y[Aib]EGTFISDYSIELDKK([Peg3-Peg3-γGlu-C20 diacid])AAQDFINWLLAGPSSGAPPPS-NH2 [Compound 31]
2. H-Y[Aib]EGTFISDYSIELDKK([Peg3-Peg3-γGlu-C20 diacid])AAQAFIEWLLAQGPSSGAPPPS-NH2 [Compound 40]
3. YAEGTFISDYSIELDKKAQRAFVEWLLAQGPSSGAPPPS (Aib at 2; Lys 17 side chain acylated: K((19-Carboxy-nonadecanoyl)-[(Piperazine-1-yl)-acetyl]-Peg3-Peg3); C-terminal amide (-NH2)) [Compound 20]

[0.009, 0.007, 0.006]

Provide reported EC50 hGIP R (cAMP, HEK293 cells expressing the GIP R) for each item, in the same order as listed.
1. H-Y[Aib]EGTFISDYSIELDKK([Peg3-Peg3-γGlu-C20 diacid])AQRAFVEWLLAQGPSSGAPPPS-NH2 [Compound 17]
2. H-Y[Aib]EGTFISDYSIELDKK([Peg3-Peg3-γGlu-C20 diacid])AAQDFINWLLAQGPSSGAPPPS-NH2 [Compound 39]
3. H-Y[Aib]EGTFISDYSIELDKIAQRAFIEWLLAGPSSGAPPPSK([Peg3-Peg3-γGlu-C20 diacid])-NH2 [Compound 23]
4. H-Y[Aib]EGTFISDYSIELDKIAAQDFVNWLLAGPSSGAPPPSK([Peg3-Peg3-γGlu-C20 diacid])-NH2 [Compound 16]
5. H-Y[Aib]EGTFISDYSIELDKK([Peg3-Peg3-γGlu-C20 diacid])AQRAFIEWLLAQGPSSGAPPPS-NH2 [Compound 18]
6. H-Y[Aib]EGTFISDYSIELDKIHQQDFVNWLLAQGPSSGAPPPSK([Peg3-Peg3-γGlu-C20 diacid])-NH2 [Compound 4]

[0.016, 0.001, 0.005, 0.012, 0.007, 0.014]
